Tested on: Human immunodeficiency virus 1
Test: Antiviral activity against HIV1 LAI infected in human CEMx174 cells coexpressing GFP preincubated for 1 hr measured after 5 days by fluorimetry
Format: functional, organism-based
Conditions: Human immunodeficiency virus 1, LAI
pEC50: −log10 of the molar value.
measure name: pEC50

[I] CCC1=C(C(=O)OCC2CCCCC2)[C@H](c2cccc(O)c2)NC(=O)N1
[II] CCC1=C(C(=O)OCC2CCCCC2)C(c2ccc(F)cc2)NC(=O)N1 (stereo not given)
[III] CCCC1=C(C(=O)OCC2CCCCC2)C(c2cccc(O)c2)NC(=O)N1 (stereo not given)
Sort the listed entries by pEC50, smallest first. Returns: the labels listed in the requested order.
III, I, II
